Biological target: UniProt P51686
Sequence (P51686 whole entry): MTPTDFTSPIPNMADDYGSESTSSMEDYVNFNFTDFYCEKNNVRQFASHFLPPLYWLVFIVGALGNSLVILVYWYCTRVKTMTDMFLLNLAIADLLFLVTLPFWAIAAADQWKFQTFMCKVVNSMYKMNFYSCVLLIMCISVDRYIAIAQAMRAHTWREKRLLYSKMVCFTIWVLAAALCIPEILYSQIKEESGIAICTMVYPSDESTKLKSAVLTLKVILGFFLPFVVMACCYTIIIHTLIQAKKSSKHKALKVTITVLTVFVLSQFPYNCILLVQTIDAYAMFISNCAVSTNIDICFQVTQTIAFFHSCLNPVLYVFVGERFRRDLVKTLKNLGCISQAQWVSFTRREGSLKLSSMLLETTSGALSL
Test: FLIPR calcium flux assay using hCCR9 over expressed cells (TECK stimulation)
Format: cell-based
Design: expressed in transfected cells; host or cells: Chem-1 cells overexpressing hCCR9
Settings: Chem1-hCCR9 overexpressing cells; Ki determined from IC50 of TECK-induced intracellular calcium increase
Give measured pKi for each item. Keep answers brief.
One number for each entry, as −log10 of the molar value.

# per-item lookup of pKi; items listed below
1. Cc1ccc(-c2cc3c(C#N)ccc(NS(=O)(=O)c4ccc(C(C)(C)C)cc4)n3n2)cn1
2. CC(C)(C)c1ccc(S(=O)(=O)Nc2c(C#N)ccc3cc(-c4cccnc4)nn23)cc1
3. Cc1ncccc1-c1cc2c(C#N)ccc(NS(=O)(=O)c3ccc(C(C)(C)C)cc3)n2n1
4. CC(C)c1cc2nccc(NS(=O)(=O)c3ccc(C(C)(C)C)cc3)n2n1
5. Cc1cc2nccc(NS(=O)(=O)c3ccc(-c4cnco4)cc3)n2n1
6. Cc1cncc(-c2cc3c(C#N)ccc(NS(=O)(=O)c4ccc(C(C)(C)C)cc4)n3n2)c1
7. Cn1nnc(-c2cc3c(Cl)ccc(NS(=O)(=O)c4ccc(C(C)(C)C)cc4)n3n2)n1

Result block:
1: 6.89; 2: 6.88; 3: 6.92; 4: 5.82; 5: 6.34; 6: 7.92; 7: 6.74

# per-item lookup of pKi; items listed below
1. CCc1cc2nccc(NS(=O)(=O)c3ccc(C(C)(C)C)cc3)n2n1
2. COc1ncccc1-c1cc2c(C#N)ccc(NS(=O)(=O)c3ccc(C(C)(C)C)cc3)n2n1
3. CCn1cc(-c2cc3c(C#N)ccc(NS(=O)(=O)c4ccc(C(C)(C)C)cc4)n3n2)cn1
4. Cc1cncc(-c2cc3c(Cl)ccc(NS(=O)(=O)c4ccc(C(C)(C)C)cc4)n3n2)c1
5. Cn1cnc(-c2cc3c(Cl)ccc(NS(=O)(=O)c4ccc(C(C)(C)C)cc4)n3n2)c1
6. Cc1ncccc1-c1cc2c(Cl)ccc(NS(=O)(=O)c3ccc(C(C)(C)C)cc3)n2n1

Result block:
[5.74, 6.90, 7.66, 7.20, 6.77, 6.83]

Reference for the values: patent US20170002011A1
